Hey, just so you know, these numbers are from PubChem BioAssay.

biological target: Dickkopf-related protein 1 (Homo sapiens); test: DKK1 binders on small-molecule microarrays, primary screen, biochemical, small-molecule microarray, 635 nm fluorescence scan (AID 1106); conditions: DKK1 binding, higher = more signal;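 also: score merges emission near 667 nm with signal to noise over three replicate slides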
endpoint: composite z-score
One number for each entry.

Would you please look over these solved cases?
smiles_entry | target_of_assay | composite z-score
C=CCOC(=O)[C@@H]1[C@H]2C(=O)O[C@H](c3ccccc3)[C@H](c3ccccc3)N2[C@H](c2ccc(OCCOC(=O)[C@H]3C[C@H]4C(=O)N[C@@H](CCCCN(C)C)C(=O)N4[C@H]3c3cccc(OCCO)c3)cc2)[C@@]12C(=O)Nc1ccccc12 | Dickkopf-related protein 1 (Homo sapiens) | -0.679
COCCOC(=O)N1C(=O)[C@@]2(c3cc(C#CCC(C(=O)OC)C(=O)OC)ccc31)[C@H](c1ccc(O)cc1)N1[C@H](c3ccccc3)[C@H](c3ccccc3)OC(=O)[C@H]1[C@@H]2C(=O)N1CCc2cc(OC)c(OC)cc2C1 | Dickkopf-related protein 1 (Homo sapiens) | 0.384
O=C1O[C@H](c2ccccc2)[C@H](c2ccccc2)N2[C@H]1[C@@H](C(=O)N1CCCCCCC1)[C@]1(C(=O)Nc3ccc(C#CCCO)cc31)[C@H]2c1ccc(O)cc1 | Dickkopf-related protein 1 (Homo sapiens) | 2.7
COCCCNC(=O)[C@@]1(Cc2ccccc2I)c2ccccc2C(=O)N(Cc2ccccc2C(F)(F)F)[C@H]1c1ccc(CO)cc1 | Dickkopf-related protein 1 (Homo sapiens) | -1.68
OCCCc1cc[n+](Cc2cc3c(cc2Br)OCO3)cc1 | Dickkopf-related protein 1 (Homo sapiens) | -0.625

Readout composite z-score for `CCOC(=O)C[C@H]1[C@H](OC(=O)c2cc3ccccc3oc2=O)[C@@H](NC(=O)Cc2ccc(OC)cc2)c2cc(OCCCO)ccc2N1C(=O)Cc1ccc(OC)cc1` , test system Dickkopf-related protein 1 (Homo sapiens), was 0.328
